Reported log10(GI50) values follow for various compounds
- System: TK-10
measurementKind: log10(GI50) (log10 of the value in µM)

compound="O=C(O)CCN1C(=O)/C(=C/C(Cl)=C/c2ccc([N+](=O)[O-])cc2)SC1=S [Compound 2h]" endpointresult=0.37
compound="O=C1/C(=C/C(Cl)=C/c2ccc([N+](=O)[O-])cc2)SC(=S)N1c1ccc(O)cc1 [Compound 2f]" endpointresult=0.69
compound="O=C1/C(=C/C(Cl)=C/c2ccc([N+](=O)[O-])cc2)SC(=S)N1/N=C\\C(Cl)=C\\c1ccc([N+](=O)[O-])cc1 [Compound 2c]" endpointresult=1.45
compound="O=C1NC(=S)S/C1=C\\C(Cl)=C\\c1ccc([N+](=O)[O-])cc1 [Compound 2b]" endpointresult=1.03
compound="O=C(O)C(Cc1ccccc1)N1C(=O)/C(=C/C(Cl)=C/c2ccc([N+](=O)[O-])cc2)SC1=S (centres unmarked) [Compound 2j]" endpointresult=0.39

###

- System: CAKI-1
measurementKind: GI50

molecule=O=C1/C(=C/C(Cl)=C/c2ccc([N+](=O)[O-])cc2)SC(=S)N1c1ccc(O)cc1 targetortestsystem=CAKI-1 endpointresult="4.44 µM"
molecule=O=C(O)CCN1C(=O)/C(=C/C(Cl)=C/c2ccc([N+](=O)[O-])cc2)SC1=S targetortestsystem=CAKI-1 endpointresult="0.485 µM"
molecule=O=C1NC(=S)S/C1=C\C(Cl)=C\c1ccc([N+](=O)[O-])cc1 targetortestsystem=CAKI-1 endpointresult="7.14 µM"
molecule="O=C(O)C(Cc1ccccc1)N1C(=O)/C(=C/C(Cl)=C/c2ccc([N+](=O)[O-])cc2)SC1=S (centres unmarked)" targetortestsystem=CAKI-1 endpointresult="2.28 µM"
molecule=O=C1/C(=C/C(Cl)=C/c2ccc([N+](=O)[O-])cc2)SC(=S)N1/N=C\C(Cl)=C\c1ccc([N+](=O)[O-])cc1 targetortestsystem=CAKI-1 endpointresult="3.11 µM"

###

- Test system: Melanoma subpanel
- assayName: cells
- measurementConditions: full panel MG_MID / Melanoma subpanel MG_MID
measurementKind: SI (selectivity index), LC50

compound=O=C1/C(=C/C(Cl)=C/c2ccc([N+](=O)[O-])cc2)SC(=S)N1/N=C\C(Cl)=C\c1ccc([N+](=O)[O-])cc1 measurementkind="SI (selectivity index), LC50" endpointresult=1.10
compound=O=C(O)CCN1C(=O)/C(=C/C(Cl)=C/c2ccc([N+](=O)[O-])cc2)SC1=S measurementkind="SI (selectivity index), LC50" endpointresult=1.22
compound=O=C1/C(=C/C(Cl)=C/c2ccc([N+](=O)[O-])cc2)SC(=S)N1c1ccc(O)cc1 measurementkind="SI (selectivity index), LC50" endpointresult=1.54
compound=O=C1NC(=S)S/C1=C\C(Cl)=C\c1ccc([N+](=O)[O-])cc1 measurementkind="SI (selectivity index), LC50" endpointresult=1.18
compound="O=C(O)C(Cc1ccccc1)N1C(=O)/C(=C/C(Cl)=C/c2ccc([N+](=O)[O-])cc2)SC1=S (centres unmarked)" measurementkind="SI (selectivity index), LC50" endpointresult=1.46

###

- System: NCI-322M
Reported GI50 values follow for various compounds
measurementKind: GI50 (µM)

compound=O=C1NC(=S)S/C1=C\C(Cl)=C\c1ccc([N+](=O)[O-])cc1 targetortestsystem=NCI-322M quantityunit=µM qualifyingsign== endpointresult=6.51
compound="O=C(O)C(Cc1ccccc1)N1C(=O)/C(=C/C(Cl)=C/c2ccc([N+](=O)[O-])cc2)SC1=S (centres unmarked)" targetortestsystem=NCI-322M quantityunit=µM qualifyingsign=> endpointresult=100
compound=O=C1/C(=C/C(Cl)=C/c2ccc([N+](=O)[O-])cc2)SC(=S)N1/N=C\C(Cl)=C\c1ccc([N+](=O)[O-])cc1 targetortestsystem=NCI-322M quantityunit=µM qualifyingsign== endpointresult=87.6
compound=O=C(O)CCN1C(=O)/C(=C/C(Cl)=C/c2ccc([N+](=O)[O-])cc2)SC1=S targetortestsystem=NCI-322M quantityunit=µM qualifyingsign== endpointresult=2.83
compound=O=C1/C(=C/C(Cl)=C/c2ccc([N+](=O)[O-])cc2)SC(=S)N1c1ccc(O)cc1 targetortestsystem=NCI-322M quantityunit=µM qualifyingsign== endpointresult=2.49

###

Reported TGI values follow for various compounds
- System: RPMI-8226
- measurementConditions: RPMI-8226 (Leukemia), 48 h, SRB
measurementKind: TGI (µM)

compound=O=C1/C(=C/C(Cl)=C/c2ccc([N+](=O)[O-])cc2)SC(=S)N1/N=C\C(Cl)=C\c1ccc([N+](=O)[O-])cc1 measurementkind=TGI quantityunit=µM qualifyingsign== endpointresult=6.32
compound=O=C(O)CCN1C(=O)/C(=C/C(Cl)=C/c2ccc([N+](=O)[O-])cc2)SC1=S measurementkind=TGI quantityunit=µM qualifyingsign== endpointresult=1.30
compound="O=C(O)C(Cc1ccccc1)N1C(=O)/C(=C/C(Cl)=C/c2ccc([N+](=O)[O-])cc2)SC1=S (centres unmarked)" measurementkind=TGI quantityunit=µM qualifyingsign=> endpointresult=100
compound=O=C1NC(=S)S/C1=C\C(Cl)=C\c1ccc([N+](=O)[O-])cc1 measurementkind=TGI quantityunit=µM qualifyingsign== endpointresult=20.6
compound=O=C1/C(=C/C(Cl)=C/c2ccc([N+](=O)[O-])cc2)SC(=S)N1c1ccc(O)cc1 measurementkind=TGI quantityunit=µM qualifyingsign== endpointresult=0.264

###

- Tested on: HCT-15
- assayName: NCI DTP 60 cell line screen, SRB
- measurementConditions: HCT-15 (Colon Cancer), 48 h, SRB
measurementKind: TGI (µM)

compound=O=C1/C(=C/C(Cl)=C/c2ccc([N+](=O)[O-])cc2)SC(=S)N1/N=C\C(Cl)=C\c1ccc([N+](=O)[O-])cc1 qualifyingsign== endpointresult=33.0
compound=O=C(O)CCN1C(=O)/C(=C/C(Cl)=C/c2ccc([N+](=O)[O-])cc2)SC1=S qualifyingsign== endpointresult=2.96
compound=O=C1NC(=S)S/C1=C\C(Cl)=C\c1ccc([N+](=O)[O-])cc1 qualifyingsign== endpointresult=8.81
compound="O=C(O)C(Cc1ccccc1)N1C(=O)/C(=C/C(Cl)=C/c2ccc([N+](=O)[O-])cc2)SC1=S (centres unmarked)" qualifyingsign== endpointresult=4.58
compound=O=C1/C(=C/C(Cl)=C/c2ccc([N+](=O)[O-])cc2)SC(=S)N1c1ccc(O)cc1 qualifyingsign=> endpointresult=100

###

Recorded below: GI50, system HOP-92.
measurementKind: GI50 (µM)

compound=O=C(O)CCN1C(=O)/C(=C/C(Cl)=C/c2ccc([N+](=O)[O-])cc2)SC1=S targetortestsystem=HOP-92 measurementkind=GI50 endpointresult=4.81
compound="O=C(O)C(Cc1ccccc1)N1C(=O)/C(=C/C(Cl)=C/c2ccc([N+](=O)[O-])cc2)SC1=S (stereo not shown)" targetortestsystem=HOP-92 measurementkind=GI50 endpointresult=2.36
compound=O=C1NC(=S)S/C1=C\C(Cl)=C\c1ccc([N+](=O)[O-])cc1 targetortestsystem=HOP-92 measurementkind=GI50 endpointresult=8.48
compound=O=C1/C(=C/C(Cl)=C/c2ccc([N+](=O)[O-])cc2)SC(=S)N1c1ccc(O)cc1 targetortestsystem=HOP-92 measurementkind=GI50 endpointresult=8.53

###

- Tested on: EKVX
- assayName: cells
- measurementConditions: Homo sapiens, 48 h, read-out: LC50
Reported CC50 values follow for various molecules
measurementKind: CC50 (µM)

molecule="O=C1/C(=C/C(Cl)=C/c2ccc([N+](=O)[O-])cc2)SC(=S)N1/N=C\\C(Cl)=C\\c1ccc([N+](=O)[O-])cc1 [Compound 2c]" quantityunit=µM qualifyingsign== endpointresult=96.1
molecule="O=C(O)C(Cc1ccccc1)N1C(=O)/C(=C/C(Cl)=C/c2ccc([N+](=O)[O-])cc2)SC1=S (centres unmarked) [Compound 2j]" quantityunit=µM qualifyingsign=> endpointresult=100
molecule="O=C(O)CCN1C(=O)/C(=C/C(Cl)=C/c2ccc([N+](=O)[O-])cc2)SC1=S [Compound 2h]" quantityunit=µM qualifyingsign== endpointresult=55.6
molecule="O=C1/C(=C/C(Cl)=C/c2ccc([N+](=O)[O-])cc2)SC(=S)N1c1ccc(O)cc1 [Compound 2f]" quantityunit=µM qualifyingsign=> endpointresult=100
molecule="O=C1NC(=S)S/C1=C\\C(Cl)=C\\c1ccc([N+](=O)[O-])cc1 [Compound 2b]" quantityunit=µM qualifyingsign=> endpointresult=50

###

- System: BT-549
- assayName: NCI DTP 60 cell line screen, SRB
- measurementConditions: BT-549 (Breast Cancer), 48 h, SRB
# strict inequality: TGI < 8 µM yields YES, everything else yields NO

compound=O=C(O)CCN1C(=O)/C(=C/C(Cl)=C/c2ccc([N+](=O)[O-])cc2)SC1=S labelclass=YES
compound=O=C1NC(=S)S/C1=C\C(Cl)=C\c1ccc([N+](=O)[O-])cc1 labelclass=YES
compound=O=C1/C(=C/C(Cl)=C/c2ccc([N+](=O)[O-])cc2)SC(=S)N1/N=C\C(Cl)=C\c1ccc([N+](=O)[O-])cc1 labelclass=NO
compound="O=C(O)C(Cc1ccccc1)N1C(=O)/C(=C/C(Cl)=C/c2ccc([N+](=O)[O-])cc2)SC1=S (centres unmarked)" labelclass=YES
compound=O=C1/C(=C/C(Cl)=C/c2ccc([N+](=O)[O-])cc2)SC(=S)N1c1ccc(O)cc1 labelclass=YES
